Molecular target: GDNF family receptor alpha-1 (Homo sapiens, UniProt P56159)
Sequence (P56159 whole entry): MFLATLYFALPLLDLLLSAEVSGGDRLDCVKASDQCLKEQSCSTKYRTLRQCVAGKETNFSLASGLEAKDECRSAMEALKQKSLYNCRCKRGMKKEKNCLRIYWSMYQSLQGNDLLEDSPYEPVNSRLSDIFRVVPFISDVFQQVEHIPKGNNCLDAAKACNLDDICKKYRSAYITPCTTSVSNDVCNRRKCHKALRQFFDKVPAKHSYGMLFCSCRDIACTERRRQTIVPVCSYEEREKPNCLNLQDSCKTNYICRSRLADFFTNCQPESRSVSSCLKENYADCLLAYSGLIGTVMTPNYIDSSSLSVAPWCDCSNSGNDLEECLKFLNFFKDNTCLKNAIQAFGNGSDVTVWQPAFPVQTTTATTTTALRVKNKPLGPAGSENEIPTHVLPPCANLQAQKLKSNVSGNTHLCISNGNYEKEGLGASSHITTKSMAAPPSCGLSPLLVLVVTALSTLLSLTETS
endpoint label: IC50

Look up IC50: "COC(=O)[C@H](Cc1cnc[nH]1)NC(=O)Cc1cccc(O[C@H]2CCc3cc(-c4cncc(Oc5ccccc5)c4)ccc32)c1" > 100 µM

Look up IC50: "CNC(=O)[C@@H](Cc1c[nH]cn1)NC(=O)Cc1cccc(O[C@H]2CCc3cc(-c4cnc(Nc5ccccc5)nc4)ccc32)c1" 29.9 µM

Look up IC50: "NC(=O)[C@H](NC(=O)Cc1cccc(O[C@H]2CCc3cc(-c4ncc(Nc5ccccc5)cn4)ccc32)c1)C1CCCCC1" 1 µM

Look up IC50: "O[C@H]1CCc2cc(-c3cnc(Nc4ccccc4)nc3)ccc21" > 100 µM

Look up IC50: "CNC(=O)Cc1cccc(O[C@H]2CCc3cc(-c4cnc(Nc5ccccc5)nc4)ccc32)c1" > 100 µM

Look up IC50: "CNC(=O)[C@H](Cc1c[nH]cn1)NC(=O)Cc1cccc(O[C@H]2CCc3cc(-c4cnc(Nc5ccccc5)nc4)ccc32)c1" > 100 µM

---

Hi there, I'd appreciate the recorded IC50 for every entry that follows.
Target: Proto-oncogene tyrosine-protein kinase receptor Ret (Homo sapiens, UniProt P07949)
Sequence (P07949 whole entry): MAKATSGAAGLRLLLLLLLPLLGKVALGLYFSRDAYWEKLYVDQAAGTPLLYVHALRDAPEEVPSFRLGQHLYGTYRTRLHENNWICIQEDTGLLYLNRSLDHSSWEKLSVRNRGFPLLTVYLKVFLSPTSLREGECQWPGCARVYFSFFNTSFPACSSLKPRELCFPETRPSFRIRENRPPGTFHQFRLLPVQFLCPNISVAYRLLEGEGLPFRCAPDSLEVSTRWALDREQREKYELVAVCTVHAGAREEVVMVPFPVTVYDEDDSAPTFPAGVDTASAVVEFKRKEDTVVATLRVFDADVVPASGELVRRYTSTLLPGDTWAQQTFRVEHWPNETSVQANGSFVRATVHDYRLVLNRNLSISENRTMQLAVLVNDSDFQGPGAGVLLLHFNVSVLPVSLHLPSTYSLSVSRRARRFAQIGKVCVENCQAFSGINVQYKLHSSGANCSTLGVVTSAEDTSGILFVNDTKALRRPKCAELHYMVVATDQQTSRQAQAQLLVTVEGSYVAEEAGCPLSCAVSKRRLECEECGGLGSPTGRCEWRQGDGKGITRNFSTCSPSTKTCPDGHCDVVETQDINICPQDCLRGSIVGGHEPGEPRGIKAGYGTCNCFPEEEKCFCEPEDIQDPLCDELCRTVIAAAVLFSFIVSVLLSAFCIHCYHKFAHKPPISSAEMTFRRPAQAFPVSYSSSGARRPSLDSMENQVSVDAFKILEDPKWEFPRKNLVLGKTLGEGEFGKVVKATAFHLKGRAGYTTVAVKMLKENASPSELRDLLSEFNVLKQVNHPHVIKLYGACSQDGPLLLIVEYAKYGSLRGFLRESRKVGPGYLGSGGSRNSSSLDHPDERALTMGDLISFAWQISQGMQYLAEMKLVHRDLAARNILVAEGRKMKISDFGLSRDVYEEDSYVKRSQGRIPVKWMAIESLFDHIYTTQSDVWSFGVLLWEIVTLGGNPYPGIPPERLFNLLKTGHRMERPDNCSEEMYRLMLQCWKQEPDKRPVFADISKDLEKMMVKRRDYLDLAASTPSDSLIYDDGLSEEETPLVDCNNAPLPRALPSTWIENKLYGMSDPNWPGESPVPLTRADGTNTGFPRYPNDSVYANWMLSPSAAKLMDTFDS
Experiment: Inhibition of RET (unknown origin)

Query IC50 on Proto-oncogene tyrosine-protein kinase receptor Ret (Homo sapiens, UniProt P07949) for "NC(=O)[C@H](NC(=O)Cc1cccc(O[C@H]2CCc3cc(-c4ncc(Nc5ccccc5)cn4)ccc32)c1)C1CCCCC1" 0.8 µM

Query IC50 on Proto-oncogene tyrosine-protein kinase receptor Ret (Homo sapiens, UniProt P07949) for "NC(=O)Cc1cccc(O[C@H]2CCc3cc(-c4cnc(Nc5ccccc5)nc4)ccc32)c1" > 100 µM

Query IC50 on Proto-oncogene tyrosine-protein kinase receptor Ret (Homo sapiens, UniProt P07949) for "CNC(=O)[C@H](NC(=O)Cc1cccc(O[C@H]2CCc3ccccc32)c1)C1CCCCC1" > 100 µM

Query IC50 on Proto-oncogene tyrosine-protein kinase receptor Ret (Homo sapiens, UniProt P07949) for "CNC(=O)[C@H](NC(=O)Cc1cccc(O[C@H]2CCc3cc(-c4cnc(Nc5cncnc5)nc4)ccc32)c1)C1CCCCC1" > 100 µM

---

Target: Proto-oncogene tyrosine-protein kinase receptor Ret (Homo sapiens)
Test: Inhibition of RET (unknown origin)
pIC50: −log10 of the molar value.
Hi there, I'd appreciate the recorded pIC50 for every entry that follows.

Query pIC50 on Proto-oncogene tyrosine-protein kinase receptor Ret (Homo sapiens) for "O[C@H]1CCc2cc(-c3cnc(Nc4ccccc4)nc3)ccc21" 4.80

Query pIC50 on Proto-oncogene tyrosine-protein kinase receptor Ret (Homo sapiens) for "CNC(=O)Cc1cccc(O[C@H]2CCc3cc(-c4cnc(Nc5ccccc5)nc4)ccc32)c1" < 4.00

Query pIC50 on Proto-oncogene tyrosine-protein kinase receptor Ret (Homo sapiens) for "CNC(=O)[C@H](NC(=O)Cc1cccc(Oc2cnc(Nc3ccccc3)nc2)c1)C1CCCCC1" < 4.00

---

Biological target: GDNF family receptor alpha-2 (Homo sapiens)
Test: Inhibition of GFRalpha2 (unknown origin) assessed as maximal efficacy relative to control
endpoint label: Emax (%)
Dear colleague, please return just the value in %, with no unit written.

Query Emax on GDNF family receptor alpha-2 (Homo sapiens) for CNC(=O)[C@H](NC(=O)Cc1cccc(O[C@@H]2Cc3ccc(-c4cnc(Nc5ccccc5)nc4)cc3C2)c1)C1CCCCC1 (racemic) 100

Query Emax on GDNF family receptor alpha-2 (Homo sapiens) for "CNC(=O)[C@H](NC(=O)Cc1cccc(Oc2cnc(Nc3ccccc3)nc2)c1)C1CCCCC1" 0

Query Emax on GDNF family receptor alpha-2 (Homo sapiens) for "CNC(=O)[C@H](NC(=O)Cc1cccc(O[C@H]2CCc3ccccc32)c1)C1CCCCC1" 66

Query Emax on GDNF family receptor alpha-2 (Homo sapiens) for "NC(=O)[C@H](NC(=O)Cc1cccc(O[C@H]2CCc3cc(-c4ncc(Nc5ccccc5)cn4)ccc32)c1)C1CCCCC1" 69

Query Emax on GDNF family receptor alpha-2 (Homo sapiens) for "CNC(=O)[C@H](NC(=O)Cc1cccc(O[C@H]2CCc3cc(-c4cncnc4)ccc32)c1)C1CCCCC1" 0

Query Emax on GDNF family receptor alpha-2 (Homo sapiens) for "CNC(=O)[C@H](NC(=O)Cc1cccc(O[C@H]2CCc3cc(-c4cnc(Nc5cncnc5)nc4)ccc32)c1)C1CCCCC1" 0

Query Emax on GDNF family receptor alpha-2 (Homo sapiens) for "CNC(=O)Cc1cccc(O[C@H]2CCc3cc(-c4cnc(Nc5ccccc5)nc4)ccc32)c1" 0

Query Emax on GDNF family receptor alpha-2 (Homo sapiens) for "NC(=O)Cc1cccc(O[C@H]2CCc3cc(-c4cnc(Nc5ccccc5)nc4)ccc32)c1" 0

Query Emax on GDNF family receptor alpha-2 (Homo sapiens) for "O=C(O)Cc1cccc(O[C@H]2CCc3cc(-c4cnc(Nc5ccccc5)nc4)ccc32)c1" 0

Query Emax on GDNF family receptor alpha-2 (Homo sapiens) for "COC(=O)[C@H](Cc1cnc[nH]1)NC(=O)Cc1cccc(O[C@H]2CCc3cc(-c4cncc(Oc5ccccc5)c4)ccc32)c1" 0

Query Emax on GDNF family receptor alpha-2 (Homo sapiens) for "CNC(=O)[C@@H](Cc1c[nH]cn1)NC(=O)Cc1cccc(O[C@H]2CCc3cc(-c4cnc(Nc5ccccc5)nc4)ccc32)c1" 0

Query Emax on GDNF family receptor alpha-2 (Homo sapiens) for "O[C@H]1CCc2cc(-c3cnc(Nc4ccccc4)nc3)ccc21" 0

Query Emax on GDNF family receptor alpha-2 (Homo sapiens) for "CNC(=O)[C@H](NC(=O)Cc1cccc(O[C@H]2CCc3cc(-c4cnc(Nc5ccccc5)nc4)ccc32)c1)C1CCCCC1" 56

Query Emax on GDNF family receptor alpha-2 (Homo sapiens) for "CNC(=O)[C@H](NC(=O)Cc1cccc(O[C@H]2CCc3cc(-c4cncc(Oc5ccccc5)c4)ccc32)c1)C1CCCCC1" 100

Query Emax on GDNF family receptor alpha-2 (Homo sapiens) for "CO[C@H]1CCc2cc(-c3cnc(Nc4ccccc4)nc3)ccc21" 0

Query Emax on GDNF family receptor alpha-2 (Homo sapiens) for "CNC(=O)[C@H](Cc1c[nH]cn1)NC(=O)Cc1cccc(O[C@H]2CCc3cc(-c4cnc(Nc5ccccc5)nc4)ccc32)c1" 46
